# target: Serine/threonine-protein kinase PLK4 (Homo sapiens)
# Sequence (O00444 whole entry, the tested form may be a part): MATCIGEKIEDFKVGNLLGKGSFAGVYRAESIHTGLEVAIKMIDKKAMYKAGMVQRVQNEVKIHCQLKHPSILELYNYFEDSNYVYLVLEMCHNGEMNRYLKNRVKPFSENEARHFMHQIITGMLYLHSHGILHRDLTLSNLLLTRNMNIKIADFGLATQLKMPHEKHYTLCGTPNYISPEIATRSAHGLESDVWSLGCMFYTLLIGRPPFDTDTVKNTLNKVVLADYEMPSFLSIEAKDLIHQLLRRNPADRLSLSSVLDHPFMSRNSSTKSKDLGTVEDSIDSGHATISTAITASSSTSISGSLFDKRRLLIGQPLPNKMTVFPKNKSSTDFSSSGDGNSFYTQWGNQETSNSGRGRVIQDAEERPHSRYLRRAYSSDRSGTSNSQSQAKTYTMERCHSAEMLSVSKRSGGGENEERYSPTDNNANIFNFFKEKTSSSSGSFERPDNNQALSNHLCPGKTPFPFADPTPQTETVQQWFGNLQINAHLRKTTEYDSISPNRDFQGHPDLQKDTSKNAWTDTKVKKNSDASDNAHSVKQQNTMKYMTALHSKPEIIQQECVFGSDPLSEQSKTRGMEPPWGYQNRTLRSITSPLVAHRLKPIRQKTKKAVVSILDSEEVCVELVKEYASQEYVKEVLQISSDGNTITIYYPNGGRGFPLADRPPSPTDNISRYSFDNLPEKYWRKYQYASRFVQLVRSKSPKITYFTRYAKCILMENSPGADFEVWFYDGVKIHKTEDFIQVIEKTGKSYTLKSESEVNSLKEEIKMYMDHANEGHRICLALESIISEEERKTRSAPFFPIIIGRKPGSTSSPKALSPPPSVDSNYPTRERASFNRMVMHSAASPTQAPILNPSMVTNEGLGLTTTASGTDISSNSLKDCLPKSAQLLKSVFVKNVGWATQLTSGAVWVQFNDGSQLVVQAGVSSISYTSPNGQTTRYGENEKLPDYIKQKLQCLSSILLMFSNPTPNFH
# assaySummary: Binding affinity to recombinant full-length N-terminal His-FLAG-GST-tagged PLK4 (unknown origin) (1 to 836 residues) expressed in baculovirus infected Sf9 insect cells incubated for 1 hr by TR-FRET assay
Below, each entry is listed with its recorded pKd.
pKd is a log-scale quantity: -log10 of the concentration expressed in molar.

| givenSmiles | pKd |
| --- | --- |
| CO[C@@H]1[C@H](N(C)CCOCCOCCOCCNC(=O)CCC2=[N+]3C(=Cc4c(C)cc(C)n4[B-]3(F)F)C=C2)C[C@H]2O[C@]1(C)n1c3ccccc3c3c4c(c5c6ccccc6n2c5c31)C(=O)NC4 | 7.70 |

Then this molecule:
Inquiry: Form field: reported pKd of CO[C@@H]1[C@H](NCCOCCOCCOCCNC(=O)CCC2=[N+]3C(=Cc4c(C)cc(C)n4[B-]3(F)F)C=C2)C[C@H]2O[C@]1(C)n1c3ccccc3c3c4c(c5c6ccccc6n2c5c31)C(=O)NC4
Reply text: 7.48
